Values were extracted from ChEMBL document CHEMBL1201861.

System: MPP-89;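 note: growth inhibition of human MPP-89 cells, read out with a cell viability assay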
ASSAY: cells
Assay type: functional, cell-based
MEASUREMENT_CONTEXT: Homo sapiens
Description: SANGER: Inhibition of human MPP-89 cell growth in a cell viability assay.
pIC50: −log10 of the molar value.
PROPERTY_NAME: pIC50

- SMILES_REPR: "CC(=O)c1c(C)c2cnc(Nc3ccc(N4CCNCC4)cn3)nc2n(C2CCCC2)c1=O"
  PROPERTY_NAME: "pIC50"
  TEST_RESULT: "< 5.40"
- SMILES_REPR: "O=C(CCCCCCC(=O)Nc1ccccc1)NO"
  PROPERTY_NAME: "pIC50"
  TEST_RESULT: 5.12
- SMILES_REPR: "Cc1n[nH]c2ccc(-c3cncc(OC[C@@H](N)Cc4c[nH]c5ccccc45)c3)cc12"
  PROPERTY_NAME: "pIC50"
  TEST_RESULT: 6.31
- SMILES_REPR: "C[C@]1(c2nc3c(C(N)=O)cccc3[nH]2)CCCN1"
  PROPERTY_NAME: "pIC50"
  TEST_RESULT: "< 5.30"
- SMILES_REPR: "Cc1ccc(NC(=O)c2cccc(C(C)(C)C#N)c2)cc1Nc1ccc2ncn(C)c(=O)c2c1"
  PROPERTY_NAME: "pIC50"
  TEST_RESULT: "< 5.40"
- SMILES_REPR: "Cc1[nH]c(/C=C2\\C(=O)Nc3ccc(S(=O)(=O)Cc4c(Cl)cccc4Cl)cc32)c(C)c1C(=O)N1CCC[C@@H]1CN1CCCC1"
  PROPERTY_NAME: "pIC50"
  TEST_RESULT: "< 5.70"
- SMILES_REPR: "NC(=O)c1ncn([C@@H]2O[C@H](COP(=O)(O)O)[C@@H](O)[C@H]2O)c1N"
  PROPERTY_NAME: "pIC50"
  TEST_RESULT: "< 2.70"
